# measurement.description: Pharmacokinetic assay in Balb/c mice (plasma and brain tissue)
# Format: in vivo
# condition: mouse, po; plasma, 5 mg/kg p.o., male Balb/c mice; read-out: Mean residence time MRT
As shown below, each of these compounds has a reported MRT value.
endpoint.label: MRT (h)

structure.smiles: CC[C@@H]1C[C@H](C(=O)Cn2ccnn2)[C@@]2(C)CC[C@H]3[C@@H](CC[C@@H]4C[C@](C)(O)CC[C@@H]43)[C@H]12
units.of.measure: h
readout.number: 2.22
//
structure.smiles: Cc1nnn(CC(=O)[C@H]2C[C@@H](C3CC3)[C@H]3[C@@H]4CC[C@@H]5C[C@](C)(O)CC[C@@H]5[C@H]4CC[C@@]32C)n1
units.of.measure: h
readout.number: 4.59
//
structure.smiles: C[C@@]1(O)CC[C@H]2[C@H](CC[C@@H]3[C@@H]2CC[C@@]2(C)[C@H]3[C@H](C3CC3)C[C@@H]2C(=O)Cn2ccnn2)C1
units.of.measure: h
readout.number: 3.47
//
structure.smiles: C[C@@H]1C[C@H](C(=O)Cn2cc(C(F)(F)F)cn2)[C@@]2(C)CC[C@H]3[C@@H](CC[C@@H]4C[C@](C)(O)CC[C@@H]43)[C@H]12
units.of.measure: h
readout.number: 4.15
//
structure.smiles: C[C@@H]1C[C@H](C(=O)Cn2ccc(C#N)n2)[C@@]2(C)CC[C@H]3[C@@H](CC[C@@H]4C[C@](C)(O)CC[C@@H]43)[C@H]12
units.of.measure: h
readout.number: 1.43
